Test system: Epidermal growth factor receptor (Homo sapiens), P00533 [T790M]
Sequence (P00533 whole entry T790M): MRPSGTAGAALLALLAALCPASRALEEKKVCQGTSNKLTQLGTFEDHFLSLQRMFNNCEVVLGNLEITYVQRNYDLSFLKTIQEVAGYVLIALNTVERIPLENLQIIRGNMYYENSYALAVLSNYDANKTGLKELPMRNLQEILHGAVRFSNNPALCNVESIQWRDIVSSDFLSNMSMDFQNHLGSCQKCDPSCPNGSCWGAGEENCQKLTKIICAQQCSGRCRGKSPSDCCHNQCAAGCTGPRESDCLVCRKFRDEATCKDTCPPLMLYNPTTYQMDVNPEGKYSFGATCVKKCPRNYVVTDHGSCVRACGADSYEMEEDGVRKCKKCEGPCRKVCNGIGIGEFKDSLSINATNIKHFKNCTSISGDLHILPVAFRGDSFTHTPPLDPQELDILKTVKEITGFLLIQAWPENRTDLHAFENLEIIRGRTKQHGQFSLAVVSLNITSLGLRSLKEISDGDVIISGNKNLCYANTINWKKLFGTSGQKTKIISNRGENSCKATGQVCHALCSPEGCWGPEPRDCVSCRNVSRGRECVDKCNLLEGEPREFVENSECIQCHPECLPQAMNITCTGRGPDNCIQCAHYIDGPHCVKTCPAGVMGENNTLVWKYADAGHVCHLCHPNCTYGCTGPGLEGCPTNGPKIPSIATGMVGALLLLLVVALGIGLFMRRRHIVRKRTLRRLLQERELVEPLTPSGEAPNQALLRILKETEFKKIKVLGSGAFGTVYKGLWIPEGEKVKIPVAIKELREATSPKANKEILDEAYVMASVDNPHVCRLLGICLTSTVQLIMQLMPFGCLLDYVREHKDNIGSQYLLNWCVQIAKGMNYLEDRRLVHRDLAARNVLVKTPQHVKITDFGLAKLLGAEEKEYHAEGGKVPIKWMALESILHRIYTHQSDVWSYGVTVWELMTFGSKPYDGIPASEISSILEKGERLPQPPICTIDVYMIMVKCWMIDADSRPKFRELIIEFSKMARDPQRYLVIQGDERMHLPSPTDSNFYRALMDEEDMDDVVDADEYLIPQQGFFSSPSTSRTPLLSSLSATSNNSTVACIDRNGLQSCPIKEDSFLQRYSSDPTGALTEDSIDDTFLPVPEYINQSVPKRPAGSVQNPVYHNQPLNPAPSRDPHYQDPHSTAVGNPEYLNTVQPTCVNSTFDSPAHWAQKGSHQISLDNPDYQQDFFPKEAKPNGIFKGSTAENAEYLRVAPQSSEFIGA
COND: at 0.1 µM
MEASURED_PARAMETER: inhibition
// return the numeric value with its unit appended

QUERY_SMILES	ENDPOINT_RESULT
CC(=O)Nc1cccc(C#Cc2cncnc2Nc2ccc(OCc3cccc(F)c3)c(Cl)c2)n1	0.03%
[O-][S+]1CCN(Cc2ccc(-c3ccc4ncnc(Nc5ccc(OCc6ccccc6)c(F)c5)c4c3)o2)CC1	4.05%
CCCN1CCC=C(c2ccc(Nc3nc(Nc4ccccc4C(N)=O)c4cc[nH]c4n3)c(C)c2)C1	2.92%
CS(=O)(=O)CCN(CC#N)Cc1ccc(-c2ccc3ncnc(Nc4ccc(OCc5cccc(F)c5)c(Cl)c4)c3c2)o1	1.04%
NCc1ccc(-c2nc(-c3ccc(Cl)c(O)c3)c(-c3ccncc3)[nH]2)cc1	-0.03%

### Prompt Let me know recorded inhibition for CCn1c(-c2nonc2N)nc2c(C#CC(C)(C)O)nc(CN3CCCC3)cc21 , thanks.
### Response -2.21%

### Prompt Let me know recorded inhibition for Nc1nc(-c2ccccn2)c(-c2ccc3ncccc3n2)s1 , thanks.
### Response 1.91%

### Prompt Let me know recorded inhibition for O=C(Nc1n[nH]c2nc(-c3ccco3)c(Br)cc12)C1CC1 , thanks.
### Response 1.4%

### Prompt Let me know recorded inhibition for CCn1c(-c2nonc2N)nc2ccncc21 , thanks.
### Response -0.65%

### Prompt Let me know recorded inhibition for CS(=O)(=O)Nc1ccc(N/C=C2\C(=O)Nc3ccccc32)cc1 , thanks.
### Response -1.68%

### Prompt Let me know recorded inhibition for Cc1ccc(NC(=O)c2ccnc(N3CCCC3)c2)cc1-c1ccc(C(=O)NCC2CC2)cc1 , thanks.
### Response 1.68%
